Hey, just so you know, these numbers are from PubChem BioAssay AID1626.

- run-description: M. tuberculosis H37Rv growth inhibitors, H37Rv strain (AID 1626);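 note: bacteria incubated seven days before Alamar blue readout; 0% = bacteria only wells and 100% = bacteria with antibiotic wells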
- test-context: active compounds read high, concentration not given here
Screen size: about 220,000 compounds; about 2,000 (0.91%) were called active. About 2% were inconclusive and are not listed. Only a sample is shown. Results with a measured potency or affinity are listed apart.
inhibition for assorted compounds
property: inhibition (%)

[[record]]
compound = "O=C(/C=C/c1ccco1)Nc1nc(-c2ccccc2)cs1"
units_text = "%"
readout_number = 9.68

[[record]]
compound = "O=C(NCc1ccccc1)NC(=O)c1ccccc1"
units_text = "%"
readout_number = -2.58

[[record]]
compound = "CC(C)(C)c1ccc2c(c1)C(=O)c1ccccc1C2=O"
units_text = "%"
readout_number = 7.48

[[record]]
compound = "Cc1ccnc2nc(C(=O)Nc3nc(-c4ccccn4)cs3)nn12"
units_text = "%"
readout_number = -1.5

[[record]]
compound = "CC1=C(CCN2CCN(C3CCCC3)C(CCO)C2)C(C)(C)CCC1 (centres undefined)"
units_text = "%"
readout_number = 3.37

[[record]]
compound = "COc1ccc2c(c1)c(C(=O)CN1CCN(C(=O)c3ccco3)CC1)c(C)n2C"
units_text = "%"
readout_number = 3.66

[[record]]
compound = "COc1ccc(C2(CNC(=O)c3cccc([N+](=O)[O-])c3)CCCCC2)cc1OC"
units_text = "%"
readout_number = 17.8

[[record]]
compound = "Cc1ccccc1Nc1cc(C(=O)NCC2CCCO2)c2ccccc2n1 (centres undefined)"
units_text = "%"
readout_number = 5.9

[[record]]
compound = "Clc1ccccc1OCCCCn1ccnc1"
units_text = "%"
readout_number = 2.53

[[record]]
compound = "Cc1occc(=O)c1OCc1c(F)cccc1Cl"
units_text = "%"
readout_number = 1.78

[[record]]
compound = "O=C1c2ccccc2-c2nnc(-c3ccccc3)cc21"
units_text = "%"
readout_number = -2.39

[[record]]
compound = "O=C(Nc1cccc(Cl)c1)OCc1cn(-c2ccccc2)nn1"
units_text = "%"
readout_number = -9.19

[[record]]
compound = "COc1ccc2c(c1)CCCN2C(N)=O"
units_text = "%"
readout_number = -8.08

[[record]]
compound = "CC(C)NC(=O)NC(=O)CSc1ccccc1F"
units_text = "%"
readout_number = 8.25

[[record]]
compound = "CCOC(=O)c1c(C)[nH]c(NC(=O)Nc2c(C)n(C)n(-c3ccccc3)c2=O)c1C"
units_text = "%"
readout_number = -2.03

[[record]]
compound = "COC(=O)[C@@H]1C[C@H]1[C@@H](NS(=O)(=O)c1ccccc1)c1ccccc1"
units_text = "%"
readout_number = -5.22

[[record]]
compound = "O=C(Nc1nnc(-c2ccncc2)o1)c1ccccc1F"
units_text = "%"
readout_number = 1.42

[[record]]
compound = "O=C(COC(=O)c1cccc2ccccc12)NCC1CCCO1 (centres undefined)"
units_text = "%"
readout_number = -2.85

[[record]]
compound = "COc1ccc(-c2ccc(OC)cc2)cc1"
units_text = "%"
readout_number = -6.18

[[record]]
compound = "CC(C)(O)C(=O)NNC(=S)Nc1ccc(F)c(Cl)c1"
units_text = "%"
readout_number = 14.7

[[record]]
compound = "Nc1ccc2c(c1)CCC2=O"
units_text = "%"
readout_number = -8.13

[[record]]
compound = "Cc1ccccc1C(=O)NC1CCN(CC(=O)NCc2cccs2)CC1"
units_text = "%"
readout_number = 2.61

[[record]]
compound = "C#CCONC(=O)c1cc(OCC(F)(F)F)ccc1OCC(F)(F)F"
units_text = "%"
readout_number = -4.59

[[record]]
compound = "Cc1ccc(C)c(OCCCCCn2ccnc2)c1"
units_text = "%"
readout_number = -10.5

[[record]]
compound = "NS(=O)(=O)c1ccc(CNC(=S)NC2CC2)cc1"
units_text = "%"
readout_number = -2.38

[[record]]
compound = "O=C1c2ccsc2SCCN1Cc1ccccc1Cl"
units_text = "%"
readout_number = 8.66

[[record]]
compound = "CCC1CCCCN1C(=O)COc1c(Br)cc(Br)c2cccnc12 (centres undefined)"
units_text = "%"
readout_number = -13.3

[[record]]
compound = "Nc1ccc2c(c1)CC(=O)c1ccccc1S2"
units_text = "%"
readout_number = 9.71

[[record]]
compound = "CC1=C(CCN2CCN(C(C)C)C(CCO)C2)C(C)(C)CCC1 (centres undefined)"
units_text = "%"
readout_number = 1.16

[[record]]
compound = "CC1(C)C(c2ccc(Cl)cc2)=[N+]([O-])C2(CCCC/C2=N\\O)N1O (centres undefined)"
units_text = "%"
readout_number = 2.14

[[record]]
compound = "CC1Cc2ccccc2N1C(=O)c1cnc2ccccn2c1=O (centres undefined)"
units_text = "%"
readout_number = -5.12

[[record]]
compound = "CCc1ccc2c(c1)C(=O)c1ccccc1C2=O"
units_text = "%"
readout_number = 7.07

[[record]]
compound = "COCCN(CCOC)C(=O)C1CCCN(S(=O)(=O)c2ccc(NC(=O)OC)cc2)C1 (centres undefined)"
units_text = "%"
readout_number = -2.59

[[record]]
compound = "C#CCNC(=O)C1CCN(c2cc(C)nc(-c3ccccc3)n2)CC1"
units_text = "%"
readout_number = -0.44

[[record]]
compound = "CN(C)C(CNC(=S)Nc1ccccc1Cl)c1cccnc1 (centres undefined)"
units_text = "%"
readout_number = 7.94

[[record]]
compound = "CCCn1nc(C(=O)Nc2nnc(CC)s2)c2ccccc2c1=O"
units_text = "%"
readout_number = -9.02

[[record]]
compound = "CC(=O)Nc1ccc(C(=O)Nc2nc(-c3ccccn3)cs2)cc1"
units_text = "%"
readout_number = 0.25

[[record]]
compound = "O=C(/C=C\\c1ccco1)Nc1nc(-c2ccccc2)cs1"
units_text = "%"
readout_number = 9.29

[[record]]
compound = "Cc1cccnc1CCNC(=O)CCc1nnc(-c2ccccc2)o1"
units_text = "%"
readout_number = 5.3

[[record]]
compound = "CC(C)(C)OC(=O)N1CCN(C(=O)Nc2ccc3c(c2)OCCO3)CC1"
units_text = "%"
readout_number = 3.99

[[record]]
compound = "COc1ccccc1C(=O)Nc1nnc(-c2ccc(F)cc2)o1"
units_text = "%"
readout_number = 9.06

[[record]]
compound = "Cc1ccccc1OCCCCCn1ccnc1"
units_text = "%"
readout_number = 5.71

[[record]]
compound = "Cc1ccc(-c2ccc3c(c2)S(=O)(=O)c2ccccc2C3=O)cc1"
units_text = "%"
readout_number = -4.26

[[record]]
compound = "Cc1cc(C)n(C(=O)CCC(=O)Nc2ccc(C)c(C)c2)n1"
units_text = "%"
readout_number = -4.23

[[record]]
compound = "COc1cccc(-c2nnc(NC(=O)C(C)C)o2)c1"
units_text = "%"
readout_number = 59.4

[[record]]
compound = "COc1ccc(-c2cc(-c3ccccc3)[n+](C)c(-c3ccccc3)c2)cc1"
units_text = "%"
readout_number = 2.49

[[record]]
compound = "Cn1cnnc1-c1cccc(NC(=O)c2cc(F)c(F)cc2Cl)c1"
units_text = "%"
readout_number = -5.29

[[record]]
compound = "COc1ccccc1C(=O)NNC(=O)c1ccc(Cl)cc1"
units_text = "%"
readout_number = 0.09

[[record]]
compound = "COc1ccc(C2(CNC(=O)c3ccc(OC)c([N+](=O)[O-])c3)CCCCC2)cc1OC"
units_text = "%"
readout_number = 8.89

